Entry source: patent US20220144812A1

Target: EP300 (P300(1048-1664)) (Homo sapiens)
Construct: P300(1048-1664)
Sequence (Q09472 1048-1664): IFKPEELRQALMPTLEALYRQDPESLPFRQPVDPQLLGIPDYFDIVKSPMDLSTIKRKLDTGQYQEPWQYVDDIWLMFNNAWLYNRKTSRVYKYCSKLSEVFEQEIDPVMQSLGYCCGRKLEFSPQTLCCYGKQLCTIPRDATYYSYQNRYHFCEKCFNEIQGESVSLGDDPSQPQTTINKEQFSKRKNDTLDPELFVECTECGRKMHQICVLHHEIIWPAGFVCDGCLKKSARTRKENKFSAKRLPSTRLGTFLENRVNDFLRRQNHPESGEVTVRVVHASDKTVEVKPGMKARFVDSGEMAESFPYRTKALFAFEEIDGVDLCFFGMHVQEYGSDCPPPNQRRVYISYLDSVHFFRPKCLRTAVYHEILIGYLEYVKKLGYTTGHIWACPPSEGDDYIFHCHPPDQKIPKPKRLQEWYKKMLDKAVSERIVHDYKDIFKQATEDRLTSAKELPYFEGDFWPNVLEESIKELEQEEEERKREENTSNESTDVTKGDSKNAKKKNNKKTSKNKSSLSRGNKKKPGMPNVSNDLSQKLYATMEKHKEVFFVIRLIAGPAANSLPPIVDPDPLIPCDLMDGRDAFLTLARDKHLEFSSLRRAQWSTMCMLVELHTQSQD
Test: Biochemical assay for EP300, SAMDI
Conditions: P300(1048-1664), Peptide #233, Ac-CoA, SAMDI mass spectrometry; read-out: EP300 Biochemistry IC50
pIC50: −log10 of the molar value.
valueKind: pIC50

1. CCn1ncc(C(N(C)C(=O)c2cc(-c3ccc(NCCN(C)C)c(C)n3)nc3ccc(Cl)cc23)C(F)(F)F)c1C (stereo not shown) = 4.30
2. COCc1ccc2nc(-c3ccc(NCCN(C)C)c(C)n3)cc(C(=O)N(C)Cc3cnc(C4CC4)n3C)c2c1 = 7.66
3. CCc1ncc(CN(C)C(=O)c2cc(-c3ccc(NCCN(C)C)c(C)n3)nc3ccc(COC)cc23)n1C = 7.46
4. CCc1ncc(CN(C)C(=O)c2cc(-c3cc(C(=O)NC)n(C)n3)nc3ccc(C4CC4)cc23)n1C = 8.25
5. CCn1ncc(CN(C)C(=O)c2nc(-c3cc(C(=O)NC)n(C)n3)nc3ccc(C4CC4)cc23)c1C = 7.18
6. CCc1ncc(CN(C)C(=O)c2nc(-c3cc(C(=O)NC)n(C)n3)nc3ccc(C4CC4)cc23)n1C = 7.84
7. CCn1ncc(CN(C)C(=O)c2cc(-c3cc(C(=O)NC)n(C)n3)nc3ccc(C4CC4)cc23)c1C = 8.18
